// provenance: patent US5219741A

- Tested on: N-acyl-L-proline acylase
- Assay type: biochemical, Comamonas testosteroni DSM 5416
- experimentalParameters: chemical agent 10 mM; 10 min pre-incubation at 30° C.; no agent = 100
Where a name gives a salt, the structure may show the parent alone.
Hi! Could you tag entries with Activity (%) below 50% as met, and those at or above as not met? Much appreciated.

Would you please look over these solved cases?
[[record]]
compound = "O=C([O-])c1cc[c]([Hg][OH])cc1 [4-hydroxymercuribenzoate]"
classassignment = "met"

[[record]]
compound = "NNC(N)=O [Semicarbazide]"
classassignment = "not met"


Input: Please check: Activity (%) for O=C([O-])c1cc[c]([Hg][Cl])cc1 [4-chloromercuribenzoate] , strictly under 50% or not?
Output: met

Input: Please check: Activity (%) for O[C@H](CS)[C@H](O)CS (racemic) [Dithiothreitol] , strictly under 50% or not?
Output: met

Input: Please check: Activity (%) for c1ccc(-c2ccccn2)nc1 [2,2-bipyridine] , strictly under 50% or not?
Output: not met

Input: Please check: Activity (%) for O=C(O)CC(O)(CC(=O)O)C(=O)O [Na citrate] , strictly under 50% or not?
Output: not met

Input: Please check: Activity (%) for NC(=O)CI [Iodoacetamide] , strictly under 50% or not?
Output: not met

Input: Please check: Activity (%) for c1cnc2c(c1)ccc1cccnc12 [1,10 phenanthroline, 1,10-phenanthroline] , strictly under 50% or not?
Output: met

----------
- Tested on: N-acyl-L-proline acylase
- Type: biochemical, Comamonas testosteroni DSM 5416
- experimentalParameters: metal cation salt 1 mM; native enzyme; no agent = 100
Attribute: Activity (%)
Quick note: give the figure in %, leave out the unit.

Input: Identify measured Activity (%) obtained with N-acyl-L-proline acylase for [Cl-].[Cl-].[Co+2] [CoCl2] .
Output: 103

----------
- System: N-acyl-L-proline acylase
- protocol: Substrate specificity: hydrolysis of N-acyl amino acids and proline derivatives
- Type: biochemical, Comamonas testosteroni DSM 5416
- experimentalParameters: proline derivatives; 30° C., pH 7.0; N-acetyl-L-proline = 100%
Where a SMILES comes first, the peptide text is derived from it. The star is where a group is joined. Cbz = O=C(OCc1ccccc1)*
assayEndpoint: Relative Activity (%)
Quick note: give the figure in %, leave out the unit.

Input: Recall and state the measured Relative Activity (%) for C[C@H](NC(=O)[C@@H]1CCCN1C(=O)OCc1ccccc1)C(=O)O [Z--L--Pro--L--Ala--OH] (Cbz-Pro-Ala-OH) .
Output: 0

Input: Recall and state the measured Relative Activity (%) for COC(=O)[C@@H]1CCCN1C(C)=O .
Output: 0

Input: Recall and state the measured Relative Activity (%) for C[C@H](N)C(=O)N1CCC[C@H]1C(=O)O [H--L Ala--L--Pro--OH] (H-Ala-Pro-OH) .
Output: 0

Input: Recall and state the measured Relative Activity (%) for O=C(O)CNC(=O)[C@@H]1CCCN1 [H--L--Pro--Gly--OH] (H-Pro-Gly-OH) .
Output: 0

----------
- Tested on: N-acyl-L-proline acylase
- protocol: Substrate specificity: hydrolysis of N-acyl amino acids and proline derivatives
- Type: biochemical, Comamonas testosteroni DSM 5416
Where a SMILES comes first, the peptide text is derived from it.
assayEndpoint: Hydrolysis by the acylase (in words)

Known results for compounds:
[[record]]
compound = "CCCCCC(=O)N1CCC[C@H]1C(=O)O [N-caproyl-L-proline]"
assayendpoint = "Hydrolysis by the acylase (in words)"
reportedmeasurement = "hydrolyzes"

[[record]]
compound = "CC(=O)N1CCC[C@H]1C(N)=O [N-acetyl-L-prolineamide]"
assayendpoint = "Hydrolysis by the acylase (in words)"
reportedmeasurement = "not hydrolyzed"

[[record]]
compound = "NCC(=O)N1CCC[C@H]1C(=O)O [glycyl-L-proline] (H-Gly-Pro-OH)"
assayendpoint = "Hydrolysis by the acylase (in words)"
reportedmeasurement = "hydrolyzes"

[[record]]
compound = "CC(=O)N1CC(O)C[C@H]1C(=O)O (stereo partly drawn) [N-acetyl-L-4-hydroxyproline]"
assayendpoint = "Hydrolysis by the acylase (in words)"
reportedmeasurement = "hydrolyzes"

[[record]]
compound = "CCCC(=O)N1CCC[C@H]1C(=O)O [N-butyryl-L-proline]"
assayendpoint = "Hydrolysis by the acylase (in words)"
reportedmeasurement = "hydrolyzes"


Input: Recall and state the measured Hydrolysis by the acylase (in words) for O=C(O)[C@@H]1CCCCN1C(=O)CCl [N-chloroacetyl-L-pipecolic acid] .
Output: hydrolyzes

Input: Recall and state the measured Hydrolysis by the acylase (in words) for O=CN1CCC[C@H]1C(=O)O [N-formyl-L-proline] .
Output: hydrolyzes
